- Test system: Nakaseomyces glabratus
- assay_info: Antifungal activity against Candida glabrata ATCC 3916 after 48 hrs by macro tube dilution method
- Format: functional
- measurement_parameters: ATCC 3916, 48 h
For each entry below, report its MIC value.
Note to self: number, then unit, no commentary.

compound="O=C1/C(=C/c2ccccc2)CCC1CN1CCCC1 (stereo not given)" property_name=MIC result="12.5 µg/mL"
compound="O[C@H]1/C(=C/c2ccccc2)CCCCC[C@H]1CN1CCCCC1 (relative stereo)" property_name=MIC result="50 µg/mL"
compound="O[C@H]1/C(=C/c2ccccc2)CCCCC[C@H]1CN1CCOCC1 (relative stereo)" property_name=MIC result="200 µg/mL"

Batch: MIC for all items listed.
1. O[C@H]1/C(=C/c2ccccc2)CCCC[C@H]1CN1CCCCC1 (relative stereo)
2. COc1ccc(/C=C2\CCC(CN3CCOCC3)C2=O)cc1 (stereo not given)

## Result
1. 200 µg/mL
2. 6.25 µg/mL

###

For each entry below, report its MIC value.
- Tested on: Nakaseomyces glabratus
- assay_info: Antifungal activity against Candida glabrata ATCC 3916 after 48 hrs by macro tube dilution method
- Format: functional
- measurement_parameters: ATCC 3916, 48 h

molecule="O[C@H]1/C(=C/c2ccccc2)CCC[C@H]1CN1CCOCC1 (relative stereo)" result="> 200 µg/mL"
molecule="COc1ccccc1/C=C1\\CCC(CN2CCOCC2)C1=O (stereo unspecified)" result="12.5 µg/mL"

Batch: MIC for all items listed.
1. O=C1/C(=C/c2ccc3c(c2)OCO3)CCC1CN1CCOCC1 (stereo unspecified)
2. COc1ccccc1/C=C1\CCC(CN2CCCCC2)C1=O (stereo unspecified)
3. CC1CCN(CC2CCC/C(=C\c3ccccc3)C2=O)CC1 (stereo unspecified)
4. O=C1/C(=C/c2ccccc2)CCCCCC1CN1CCOCC1 (stereo unspecified)
5. O=C1/C(=C/c2ccccc2)CCCC1CN1CCCC1 (stereo unspecified)
6. O=C1/C(=C/c2ccccc2)CCC1CN1CCOCC1 (stereo unspecified)
7. O=C1/C(=C/c2ccccc2)CCC1CN1CCNCC1 (stereo unspecified)

## Result
1. 3.12 µg/mL
2. 12.5 µg/mL
3. 100 µg/mL
4. > 200 µg/mL
5. 25 µg/mL
6. 6.25 µg/mL
7. 12.5 µg/mL

Batch: MIC for all items listed.
1. O[C@H]1/C(=C/c2ccccc2)CCCC[C@@H]1CN1CCCCC1 (relative stereo)
2. O[C@@H]1/C(=C/c2ccccc2)CC[C@H]1CN1CCCCC1 (relative stereo)

## Result
["100 µg/mL", "> 200 µg/mL"]

###

- System: Candida albicans
- assay_info: Inhibition of chitin synthase in Candida albicans ATCC 90028 at 1.5 times MIC by liquid scintillation analyzer relative to nikkomycin
Active and inactive are the calls of the source. The calls are words filed in the database; no cut-off is given here.
property_name: inhibition

compound="O=C1/C(=C/c2ccccc2)CCC1CN1CCNCC1 (stereo unspecified)" system_name="Candida albicans" property_name=inhibition result=inactive
compound="O=C1/C(=C/c2ccccc2)CCCCCC1CN1CCCCC1 (stereo unspecified)" system_name="Candida albicans" property_name=inhibition result=50%
compound="O=C1/C(=C/c2ccccc2)CCCCC1CN1CCCCC1 (stereo unspecified)" system_name="Candida albicans" property_name=inhibition result=24%
compound="O=C1/C(=C/c2ccccc2)CCCCC1CN1CCOCC1 (stereo unspecified)" system_name="Candida albicans" property_name=inhibition result=24%

## Task Dear colleague, I am looking for the recorded inhibition of the following compound: COc1cccc(/C=C2\CCC(CN3CCOCC3)C2=O)c1 (stereo unspecified)
## Result inactive

###

- Test system: Nakaseomyces glabratus
- assay_info: Antifungal activity against Candida glabrata ATCC 3916 after 48 hrs by macro tube dilution method
- Type: functional
- measurement_parameters: ATCC 3916, 48 h
For each entry below, report its MIC value.

compound="Cc1ccc(/C=C2\\CCCC(CN3CCOCC3)C2=O)cc1 (stereo unspecified)" result="> 200 µg/mL"

Batch: MIC for all items listed.
1. COc1cccc(/C=C2\CCC(CN3CCOCC3)C2=O)c1 (stereo unspecified)
2. O=C1/C(=C/c2ccccc2)CCCCC1CN1CCOCC1 (stereo unspecified)

## Result
3.12 µg/mL
> 200 µg/mL

###

- Tested on: Pichia kudriavzevii
- assay_info: Antifungal activity against Candida krusei ATCC 30068 after 48 hrs by macro tube dilution method
- Format: functional
- measurement_parameters: ATCC 30068, 48 h
Under this convention, 1 denotes MIC strictly below 20 µg/mL and 0 denotes MIC at or above 20 µg/mL.

A selection of reference data follows.
compound="O[C@H]1/C(=C/c2ccccc2)CCC[C@H]1CN1CCOCC1 (relative stereo)" system_name="Pichia kudriavzevii" class_label=0
compound="COc1ccc(/C=C2\\CCC(CN3CCOCC3)C2=O)cc1 (stereo not drawn)" system_name="Pichia kudriavzevii" class_label=1

## Task Does the reported MIC of Cc1ccc(/C=C2\CCC(CN3CCOCC3)C2=O)cc1 (stereo not drawn) stay below 20 µg/mL?
## Result 1

## Task Would you kindly repeat that for COc1cccc(/C=C2\CCC(CN3CCOCC3)C2=O)c1 (stereo not drawn) ?
## Result 1

## Task Would you kindly repeat that for COc1ccc(/C=C2\CCCC(CN3CCOCC3)C2=O)cc1OC (stereo not drawn) ?
## Result 0

## Task Would you kindly repeat that for O=C1/C(=C/c2ccccc2)CCC1CN1CCNCC1 (stereo not drawn) ?
## Result 1

## Task Would you kindly repeat that for COc1ccccc1/C=C1\CCC(CN2CCOCC2)C1=O (stereo not drawn) ?
## Result 1

## Task Would you kindly repeat that for O=C1/C(=C/c2ccccc2)CCC1CN1CCc2ccccc2C1 (stereo not drawn) ?
## Result 1

## Task Would you kindly repeat that for COc1ccc(/C=C2\CCC(CN3CCCCC3)C2=O)cc1 (stereo not drawn) ?
## Result 1

## Task Would you kindly repeat that for O=C1/C(=C/c2ccc3c(c2)OCO3)CCC1CN1CCOCC1 (stereo not drawn) ?
## Result 1

## Task Would you kindly repeat that for O[C@@H]1/C(=C/c2ccccc2)CC[C@H]1CN1CCCCC1 (relative stereo) ?
## Result 0

## Task Would you kindly repeat that for O[C@H]1/C(=C/c2ccccc2)CCC[C@@H]1CN1CCOCC1 (relative stereo) ?
## Result 0

###

For each entry below, report its MIC value.
- System: Nakaseomyces glabratus
- assay_info: Antifungal activity against Candida glabrata ATCC 3916 after 48 hrs by macro tube dilution method
- Assay type: functional
- measurement_parameters: ATCC 3916, 48 h

compound="O[C@H]1/C(=C/c2ccccc2)CCCC[C@H]1CN1CCOCC1 (relative stereo)" property_name=MIC result="> 200 µg/mL"
compound="COc1ccc(/C=C2\\CCC(CN3CCCCC3)C2=O)cc1 (stereo not drawn)" property_name=MIC result="6.25 µg/mL"

Moving on to another compound below.
## Task Dear colleague, I am looking for the recorded MIC of the following compound: O[C@H]1/C(=C/c2ccccc2)CCC[C@@H]1CN1CCOCC1 (relative stereo)
## Result > 200 µg/mL

###

- System: Pichia kudriavzevii
- assay_info: Antifungal activity against Candida krusei ATCC 30068 after 48 hrs by macro tube dilution method
- Type: functional
- measurement_parameters: ATCC 30068, 48 h
Under this convention, 1 denotes MIC strictly below 20 µg/mL and 0 denotes MIC at or above 20 µg/mL.

compound="COc1cc(/C=C2\\CCC(CN3CCCCC3)C2=O)cc(OC)c1OC (stereo unspecified)" system_name="Pichia kudriavzevii" class_label=1
compound="CC1CCN(CC2CCC/C(=C\\c3ccccc3)C2=O)CC1 (stereo unspecified)" system_name="Pichia kudriavzevii" class_label=0
compound="COc1ccc(/C=C2\\CC[C@@H](CN3CCCCC3)[C@@H]2O)cc1 (relative stereo)" system_name="Pichia kudriavzevii" class_label=0
compound="O=C1/C(=C/c2ccccc2)CCC1CN1CCOCC1 (stereo unspecified)" system_name="Pichia kudriavzevii" class_label=1

## Task Does the reported MIC of O[C@H]1/C(=C/c2ccccc2)CCCCC[C@H]1CN1CCCCC1 (relative stereo) stay below 20 µg/mL?
## Result 1

## Task Would you kindly repeat that for CC1CCN(C[C@H]2CCC/C(=C\c3ccccc3)[C@@H]2O)CC1 (relative stereo) ?
## Result 0

## Task Would you kindly repeat that for O[C@H]1/C(=C/c2ccccc2)CCCCC[C@H]1CN1CCOCC1 (relative stereo) ?
## Result 0

## Task Would you kindly repeat that for O=C1/C(=C/c2ccccc2)CCCCCC1CN1CCOCC1 (stereo unspecified) ?
## Result 0

## Task Would you kindly repeat that for O=C1/C(=C/c2ccccc2)CCCCC1CN1CCOCC1 (stereo unspecified) ?
## Result 0

## Task Would you kindly repeat that for O=C1/C(=C/c2ccccc2)CCCC1CN1CCOCC1 (stereo unspecified) ?
## Result 0

###

- System: Pichia kudriavzevii
- assay_info: Antifungal activity against Candida krusei ATCC 30068 after 48 hrs by macro tube dilution method
- Assay type: functional
- measurement_parameters: ATCC 30068, 48 h
For each entry below, report its MIC value.

molecule="Cc1ccc(/C=C2\\CCCC(CN3CCOCC3)C2=O)cc1 (stereo unspecified)" property_name=MIC result="200 µg/mL"
molecule="O[C@H]1/C(=C/c2ccccc2)CCCC[C@@H]1CN1CCCCC1 (relative stereo)" property_name=MIC result="100 µg/mL"
molecule="O[C@H]1/C(=C/c2ccccc2)CCCC[C@H]1CN1CCOCC1 (relative stereo)" property_name=MIC result="> 200 µg/mL"
molecule="COc1ccc(/C=C2\\CCCC(CN3CCOCC3)C2=O)cc1 (stereo unspecified)" property_name=MIC result="25 µg/mL"
molecule="COc1cccc(/C=C2\\CCC(CN3CCCCC3)C2=O)c1 (stereo unspecified)" property_name=MIC result="12.5 µg/mL"
molecule="O=C1/C(=C/c2ccccc2)CCC1CN1CCCC1 (stereo unspecified)" property_name=MIC result="6.25 µg/mL"
molecule="O=C1/C(=C/c2ccccc2)CCCCCC1CN1CCCCC1 (stereo unspecified)" property_name=MIC result="200 µg/mL"
molecule="O[C@H]1/C(=C/c2ccccc2)CCCC[C@H]1CN1CCCCC1 (relative stereo)" property_name=MIC result="200 µg/mL"
molecule="O=C1/C(=C/c2ccccc2)CCCCC1CN1CCCCC1 (stereo unspecified)" property_name=MIC result="100 µg/mL"
molecule="COc1ccccc1/C=C1\\CCC(CN2CCCCC2)C1=O (stereo unspecified)" property_name=MIC result="12.5 µg/mL"

Moving on to another molecule below.
## Task Dear colleague, I am looking for the recorded MIC of the following molecule: O=C1/C(=C/c2ccccc2)CCCC1CN1CCCC1 (stereo unspecified)
## Result 25 µg/mL
